ASSAY TARGET: T1, recombinant human VTCN1-his protein (human, UniProt Q7Z7D3 25-259, limits assumed)
T1 construct: also called human VTCN1 protein; recombinant VTCN1
T1 sequence: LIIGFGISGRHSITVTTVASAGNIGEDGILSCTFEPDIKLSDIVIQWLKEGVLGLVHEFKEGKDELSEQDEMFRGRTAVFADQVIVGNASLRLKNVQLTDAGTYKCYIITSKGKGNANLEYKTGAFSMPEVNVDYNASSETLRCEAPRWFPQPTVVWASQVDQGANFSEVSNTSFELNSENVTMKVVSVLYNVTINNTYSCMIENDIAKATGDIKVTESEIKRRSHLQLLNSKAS
ASSAY NOTES: BLI (OCTET), human VTCN1 protein
READOUT KIND: pKd
Note: pKd values are expressed as the negative base-10 logarithm of concentration in M.

Inquiry: Bench note: what pKd did hu6D9_66B1 (antibody, V domains shown, Humanized 6D9) VH: QVQLVESGGGVVQPGRSLRLSCAVSGFTFSSYGVQWVRQAPGKGLEWLGVIWSSGSTDYNAAFLSRLTISKDNSKNTVYFQMNSLRAEDTAVYYCARDVTTIVEGFAHWGQGTLVTVSS VL: DIQMTQSPSSLSASVGDRVTITCKASEKVGTYVSWYQQKPGKAPKLLIYGASNRYTGVPSRFSGSGSGTDFTLTISSLQPEDFATYYCGQTYSYPFTFGQGTKLEIK show?
Reply text: 7.57
